These data points were gathered from patent US20240287172A1.

Molecular target: T1, hiR2-FL-C508A-T7 (human, UniProt Q6PJF5 1-856)
T1 construct: reduced surface expression reported
T1 sequence: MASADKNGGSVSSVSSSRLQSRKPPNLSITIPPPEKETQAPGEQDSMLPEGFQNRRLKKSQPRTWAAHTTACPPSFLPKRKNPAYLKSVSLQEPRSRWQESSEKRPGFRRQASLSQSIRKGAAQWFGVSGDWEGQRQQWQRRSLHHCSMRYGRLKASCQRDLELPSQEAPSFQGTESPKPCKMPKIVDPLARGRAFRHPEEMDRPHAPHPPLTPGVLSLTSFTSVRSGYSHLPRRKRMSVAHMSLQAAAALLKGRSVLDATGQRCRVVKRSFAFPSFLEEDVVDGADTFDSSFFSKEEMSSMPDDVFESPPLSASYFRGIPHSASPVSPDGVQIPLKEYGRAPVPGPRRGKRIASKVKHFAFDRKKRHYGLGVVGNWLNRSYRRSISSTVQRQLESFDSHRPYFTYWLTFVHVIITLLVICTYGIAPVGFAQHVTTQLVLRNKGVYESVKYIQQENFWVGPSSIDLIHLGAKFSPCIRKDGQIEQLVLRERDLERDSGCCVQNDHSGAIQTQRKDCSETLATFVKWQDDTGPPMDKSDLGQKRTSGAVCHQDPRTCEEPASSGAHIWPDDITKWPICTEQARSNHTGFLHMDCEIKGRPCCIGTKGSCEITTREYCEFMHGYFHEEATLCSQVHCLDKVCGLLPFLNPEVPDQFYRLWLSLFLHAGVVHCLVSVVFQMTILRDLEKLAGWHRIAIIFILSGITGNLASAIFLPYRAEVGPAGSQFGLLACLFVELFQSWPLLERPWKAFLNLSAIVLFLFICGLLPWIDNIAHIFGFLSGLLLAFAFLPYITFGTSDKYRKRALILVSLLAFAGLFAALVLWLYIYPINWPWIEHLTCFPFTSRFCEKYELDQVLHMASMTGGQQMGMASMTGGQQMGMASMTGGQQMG
Assay: FACS on MEF-DKO cells expressing the variant, 3 µg/ml antibody
quantity: loss of binding vs wild type

I am curious: what loss of binding vs wild type value has been reported for antibody 22 (antibody, V domains shown, mouse IgG, kappa light chain; also called clone #22; purified antibody 22) VH: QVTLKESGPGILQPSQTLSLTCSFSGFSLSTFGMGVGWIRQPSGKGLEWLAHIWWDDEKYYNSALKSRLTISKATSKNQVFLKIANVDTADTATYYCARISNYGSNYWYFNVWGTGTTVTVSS VL: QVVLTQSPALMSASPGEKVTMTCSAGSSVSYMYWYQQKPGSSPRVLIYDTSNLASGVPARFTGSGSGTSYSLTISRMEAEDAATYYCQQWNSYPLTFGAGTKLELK ?
≥ 30%

Item under review: antibody 44 (antibody, V domains shown, mouse IgG, kappa light chain; also called clone #44; purified antibody 44) VH: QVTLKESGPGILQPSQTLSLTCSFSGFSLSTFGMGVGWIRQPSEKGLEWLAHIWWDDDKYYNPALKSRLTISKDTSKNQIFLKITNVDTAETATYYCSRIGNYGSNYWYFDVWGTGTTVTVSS VL: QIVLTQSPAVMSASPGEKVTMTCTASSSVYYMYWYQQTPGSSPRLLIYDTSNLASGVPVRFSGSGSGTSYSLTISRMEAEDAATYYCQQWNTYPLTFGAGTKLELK . Reported loss of binding vs wild type?
≥ 30%

Now turn to the next binder.
What value of loss of binding vs wild type has been reported for the following binder? antibody 42 (antibody, V domains shown, mouse IgG, kappa light chain; also called clone #42; purified antibody 42) VH: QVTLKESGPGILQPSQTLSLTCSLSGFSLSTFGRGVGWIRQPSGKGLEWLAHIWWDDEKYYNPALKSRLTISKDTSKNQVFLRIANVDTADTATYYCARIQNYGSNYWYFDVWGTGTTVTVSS VL: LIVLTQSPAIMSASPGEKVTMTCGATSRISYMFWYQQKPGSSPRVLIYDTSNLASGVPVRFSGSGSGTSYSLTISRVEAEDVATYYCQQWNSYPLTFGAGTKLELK
≥ 30%
